experiment: Solubility screening of Formula (I) in crystallization solvents at RT and 50° C. (TABLE 3); type: physicochemical; conditions: 2-butanone (MEK), organic solvent or mixture, thermodynamic from solid, MEK; RT; read-out: Nominal Solubility
Measured parameter: solubility

Answer with the recorded solubility of CC[C@H](C)C(=O)N1CCC(NC(=O)Nc2ccc(OC(F)(F)F)c(F)c2)CC1 only. 50.4 mg/mL

----------
Assay: Differential scanning calorimetry (DSC): heat of fusion, thermal events
Assay type: physicochemical
Experimental: Differential scanning calorimetry analyses were performed on each sample “as is.” Unless otherwise specified, samples were weighed in an aluminum pan, covered with a pierced lid, and then crimped and analyzed from 30-300° C. ramped at 10° C./min. The DSC data were used to determine the heat of fusion for Forms A, B, D, and F, based on their heats of fusion as measured during conversion from Form C.
Quick reference: DSC Thermal Events, Endo: melting of pattern D of the listed items.

Below, each entry is followed by its recorded DSC Thermal Events, Endo: melting of pattern D result.
[[record]]
molecule = "CC[C@H](C)C(=O)N1CCC(NC(=O)Nc2ccc(OC(F)(F)F)c(F)c2)CC1 [E]"
result = "142 °C melting of pattern D"

[[record]]
molecule = "CC[C@H](C)C(=O)N1CCC(NC(=O)Nc2ccc(OC(F)(F)F)c(F)c2)CC1 [Form A]"
result = "141 °C melting of pattern D (shoulder)"

[[record]]
molecule = "CC[C@H](C)C(=O)N1CCC(NC(=O)Nc2ccc(OC(F)(F)F)c(F)c2)CC1 [Form B]"
result = "141 °C melting of pattern D"

[[record]]
molecule = "CC[C@H](C)C(=O)N1CCC(NC(=O)Nc2ccc(OC(F)(F)F)c(F)c2)CC1 [L]"
result = "141 °C melting of pattern D"

[[record]]
molecule = "CC[C@H](C)C(=O)N1CCC(NC(=O)Nc2ccc(OC(F)(F)F)c(F)c2)CC1 [Form D]"
result = "143 °C melting of pattern D"


Answer with the recorded DSC Thermal Events, Endo: melting of pattern D of CC[C@H](C)C(=O)N1CCC(NC(=O)Nc2ccc(OC(F)(F)F)c(F)c2)CC1 [K] only. 142 °C melting of pattern D
